Tested on: 786-0 renal
Experiment: NCI-60 one-dose screen, 48 h
Conditions: 10 µM unless noted
This is part of a sample that, as a whole, favours compounds with a hit. Of some 83,000 tested, about 20% had one in any assay. The source made the active and inactive calls. Rule for the calls: active = growth percent below 10; inactive = the rest.
The categories you may choose from are active, inactive

The examples below pair each entry with its known result.
COMPOUND | TARGET DESC | CATEGORY LABEL
COc1ccc(C)c2sc(N(Cc3cccnc3)C(=O)c3ccc(C#N)cc3)nc12 | 786-0 renal | active
O=C1N=c2ccccc2=C1c1sc(=Nc2ccccc2)n(Nc2ccccc2)c1O | 786-0 renal | inactive
Cc1ccc(N=NC2C(=O)N(c3ccc(Cl)cc3)N(c3ccc(Cl)cc3)C2=O)cc1 | 786-0 renal | inactive

Exercise: Outcome? CNCCNc1nc2ccccc2c2c(=O)c3cccc(C)c3sc12
Key: inactive

Exercise: What did this assay record as the result for COc1nccc2cc3c(=O)n4c(cc5ccccc54)c(=O)n3c12 ?
Key: inactive

====

Test system: CAKI-1 renal
Assay: NCI-60 one-dose screen, 48 h (100 = growth as untreated, 0 = no growth, -100 = all killed)
Conditions: 10 µM unless noted
About 83,000 compounds went through this panel and 20% of them were active in at least one assay; those are over-represented in the sample as a whole. Activity calls are given as the source filed them. The calls were made as follows: active = growth percent below 10; inactive = the rest.
METRIC: growth

Solved cases below.
MOLECULE | growth
CC1=C(C(=O)OCC2CCN(C(=O)OC(C)(C)C)CC2)[C@H](c2cccc(Br)c2)C2=C(CC(C)(C)CC2=O)N1 | 26.6% (inactive)
COc1cc(/C=C2\CN(C)C/C(=C\c3cc(CN4CCCC4)c(O)c(OC)c3)C2=O)cc(CN2CCCC2)c1O | 99.6% (inactive)
CC(=O)c1ccc2oc(=O)n(Cc3ccc(C#N)cc3)c(=O)c2c1 | 94.6% (inactive)

The reported growth of the molecule FC(F)(F)c1cccc(Nc2nc(-c3ccccc3)nc3ncccc23)c1 was 40.4% (inactive)

Entry O=c1oc2ccc(Br)cc2c(=O)n1-c1ccc(Br)cc1F ; growth = -10.6% (active)

growth reading for COc1cc(/C=C2\CN(S(=O)(=O)c3ccccc3)C/C(=C\c3cc(CN4CCCC4)c(O)c(OC)c3)C2=O)cc(CN2CCCC2)c1O : 75.3% (inactive)

====

System: MDA-MB-435 melanoma
Assay: NCI-60 one-dose screen, 48 h
Settings: 10 µM unless noted
The panel holds about 83,000 compounds, 20% with a hit somewhere; the sample as a whole holds those more often. Activity calls are given as the source filed them. The calls were made as follows: active = growth percent below 10; inactive = the rest.
Use one of these outcomes when replying: y = active, n = inactive

The examples below pair each entry with its known result.
COMPOUND | CATEGORY LABEL
COc1cc(/C=C2\CN(C)C/C(=C\c3cc(CN4CCCC4)c(O)c(OC)c3)C2=O)cc(CN2CCCC2)c1O | n
COC(=O)[C@H](NC(=O)C1(C)CCC[C@]2(C)[C@H]3C[C@H]4C(C(C)C)=C[C@]3(CC[C@@H]12)[C@@H]1C(=O)CCC(=O)[C@@H]14)C(C)C (stereo not given in full) | n
O=c1[nH]nnc2c1ncn2C1OC(CO)C(O)C1O (stereo not given) | n
O=C(NN1C(=O)CSC1c1ccc(Cl)cc1)c1[nH]c2ccc(F)cc2c1-c1ccccc1 (stereo not given) | n
O=C(/C=C/c1ccccn1)c1ccc(OCc2nnc(-c3ccc(Cl)cc3)o2)cc1 | y

Exercise: // return assay outcome for O=C(O)CCCN1C(=O)C2C3CCC(C3)C2C1=O (stereo not given)
Key: n

====

Tested on: CCRF-CEM leukemia
Test: NCI-60 one-dose screen, 48 h
Conditions: 10 µM unless noted
Compounds without any hit were thinned out: in the full panel of roughly 83,000, 20% have a hit. The source made the active and inactive calls. The calls were made as follows: active = growth percent below 10; inactive = the rest.
Result category, one only: active, inactive

Examples from the recorded data:
COMPOUND | CATEGORY LABEL
O=C(c1ccccc1)N(CCc1ccc(Cl)cc1)C(=S)N(C(=O)c1ccccc1)c1ccccc1 | active
COc1ccc(-c2cn[nH]c2-c2ccc(OC)c(O)c2)cc1 | inactive
CC(=O)n1cc(-c2c[nH]c3ccccc23)c(-c2ccc(Cl)cc2)n1 | inactive
CCN1C(=O)N(CC)C2Nn3c(s/c(=C4\C(=O)N(C(C)C)c5ccccc54)c3=O)=NC21 (stereo not given) | inactive
CN(C)c1ccc(N=Cc2ccc(N3CCOCC3)cc2)cc1 | inactive
COc1ccc(C2C3=C(COC3=O)N(CCO)c3cc4c(cc32)OCCO4)cc1 (stereo not given) | inactive
CC(C)(C)c1ccc(C2CC(=O)C3=C(C2)Nc2ccccc2N(C(=O)c2ccccc2Cl)C3c2ccc(F)cc2)cc1 (stereo not given) | inactive
Cc1ccc(Cc2cnc(NC(=O)CN3C(=O)/C(=C\c4ccccc4)SC3=S)s2)cc1 | inactive

Exercise: What is the recorded call for this compound in the test? O=C(CCN1C(=O)c2ccccc2C1=O)Nc1ccc(Cl)cc1
Key: inactive

Exercise: State the result this test recorded for CC1(C)CC2(C)OC2C2(C1)N=NC(=Nc1ccccc1)O2 (stereo not given) .
Key: inactive

====

Tested on: OVCAR-4 ovarian
Assay: NCI-60 one-dose screen, 48 h
Details: 10 µM unless noted
This is part of a sample that, as a whole, favours compounds with a hit. Of some 83,000 tested, about 20% had one in any assay. Active and inactive are the calls of the source. Rule for the calls: active = growth percent below 10; inactive = the rest.
In this exercise, the only acceptable responses are active, inactive

Consider the following illustrative entries.
COMPOUND | CATEGORY LABEL
COc1cc(/C=C/C(=O)N2c3ccccc3CC2C)c(OC)c2c1OCO2 (centres undefined) | inactive
CSc1nc2c(c(=O)n1C)N=C1c3ccccc3C(=O)C1C(c1ccccc1)N2 (centres undefined) | inactive
CC(C)C[C@H](C(=O)N[C@H](C(N)=O)C(C)C)N1CC=CCN(OCc2ccccc2)S1(=O)=O | inactive
COc1ccc(/C=C/C(=O)c2ccc(Nc3nc(NCCO)nc(Nc4ccc(Cl)cc4)n3)cc2)cc1 | inactive
O=c1cc(-c2ccccc2)oc2cc(OCc3cn(Cc4ccc(F)cc4)nn3)cc(OCc3cn(Cc4ccc(F)cc4)nn3)c12 | active

Exercise: GET /call?item= O=C(/C=C/c1ccccc1)c1ccc(Nc2nc(NCCO)nc(Nc3ccc(Cl)cc3)n2)cc1 returns the recorded outcome of this test.
Key: inactive

Exercise: Recorded test outcome, item CCOc1cccc(/C=N\Nc2nc(=O)cc(C(=O)OC)s2)c1O
Key: inactive

Exercise: I would be grateful if you could indicate the recorded call for CCOC(=O)C1=C(C)N=c2s/c(=C\c3cc(Cl)ccc3O)c(=O)n2C1c1ccc(OC)cc1 (centres undefined) .
Key: inactive

Exercise: Any idea what this test logged for O=c1[nH]nnc2c1ncn2C1OC(CO)C(O)C1O (centres undefined) ?
Key: inactive

Exercise: In this assay, the call recorded for COc1ccc(C2C3=C(COC3=O)N(CCO)c3cc4c(cc32)CCC4)cc1 (centres undefined) was what?
Key: inactive

Exercise: Dear all, I need the recorded test outcome for CC1=C(C(=O)OCC2CCN(C(=O)OC(C)(C)C)CC2)[C@H](c2cccc(C#N)c2)C2=C(CC(C)(C)CC2=O)N1 , thank you.
Key: inactive

Exercise: Field: outcome | Entry: CC(=O)SC1CC(=O)C=C2CCC3C4CCC(=O)OC4(C)CCC3C21C (centres undefined)
Key: inactive

====

growth by entry:
Test system: NCI-H23 lung
Assay: NCI-60 one-dose screen, 48 h (100 = growth as untreated, 0 = no growth, -100 = all killed)
Details: 10 µM unless noted
Experimental: Growth inhibition of the NCI-H23 human Non-Small Cell Lung tumor cell line is measured as a screen for anti-cancer activity. Cells are grown in 96 well plates and exposed to the test compound for 48 hours. Compounds are tested at a single concentration, which is 10^-5 M for most compounds. The reported endpoint is percent growth (GI% or GIPRCNT), where numbers from 0 - 100% represent growth inhibition, and numbers from -100% - 0 represent cell death. […]
About 83,000 compounds went through this panel and 20% of them were active in at least one assay; those are over-represented in the sample as a whole.
# output: bare number, implied unit %

In the examples that follow, each entry is paired with its recorded growth.
COMPOUND | growth, %
CSc1nc2c(c(=O)[nH]1)N=C1c3ccccc3C(=O)C1C(c1ccc(F)cc1)N2 (stereo not given) | 83.7
c1ccc(CNc2nc(Nc3ccccc3)nc3ccccc23)cc1 | 64.6
CN1CCN(Cc2ccc(NC(=O)c3cncc(C#Cc4nc(N)nc5[nH]ncc45)c3)cc2C(F)(F)F)CC1 | 102
O=S(=O)(c1ccc(NC(=S)NC23CC4CC(CC(C4)C2)C3)cc1)N1CCCCC1 | 95.5
COc1cc(/C=C2\CN(C)C/C(=C\c3cc(CN4CCCCC4)c(O)c(OC)c3)C2=O)cc(CN2CCCCC2)c1O | 34.2
CC(C)c1ccc(S(=O)(=O)NC(=O)NC2CCCC2)cc1 | 101
COc1ccc(C2C3=C(COC3=O)N(CCO)c3cc4c(cc32)CCC4)cc1OC (stereo not given) | 29.8
N#C/C(=C1\SC(=O)CN1c1ccccc1)c1nc2ccccc2s1 | 75.8
Nc1cccc(Nc2cc(S(=O)(=O)O)c(N)c3c2C(=O)c2ccccc2C3=O)c1 | 109

Could you now consider this next compound?
Briefly, growth measured for CC/C(=C(\CC)c1ccc(OCC[N+](C)(C)C)cc1)c1ccc(OC)cc1 : 56.7

Value source: PubChem BioAssay (NCI)
